Each record here notes measured Ki.
# target.desc: rat VR1 (Rattus norvegicus, UniProt O35433)
# Construct: expressed in transfected cells
# Sequence (O35433 whole entry): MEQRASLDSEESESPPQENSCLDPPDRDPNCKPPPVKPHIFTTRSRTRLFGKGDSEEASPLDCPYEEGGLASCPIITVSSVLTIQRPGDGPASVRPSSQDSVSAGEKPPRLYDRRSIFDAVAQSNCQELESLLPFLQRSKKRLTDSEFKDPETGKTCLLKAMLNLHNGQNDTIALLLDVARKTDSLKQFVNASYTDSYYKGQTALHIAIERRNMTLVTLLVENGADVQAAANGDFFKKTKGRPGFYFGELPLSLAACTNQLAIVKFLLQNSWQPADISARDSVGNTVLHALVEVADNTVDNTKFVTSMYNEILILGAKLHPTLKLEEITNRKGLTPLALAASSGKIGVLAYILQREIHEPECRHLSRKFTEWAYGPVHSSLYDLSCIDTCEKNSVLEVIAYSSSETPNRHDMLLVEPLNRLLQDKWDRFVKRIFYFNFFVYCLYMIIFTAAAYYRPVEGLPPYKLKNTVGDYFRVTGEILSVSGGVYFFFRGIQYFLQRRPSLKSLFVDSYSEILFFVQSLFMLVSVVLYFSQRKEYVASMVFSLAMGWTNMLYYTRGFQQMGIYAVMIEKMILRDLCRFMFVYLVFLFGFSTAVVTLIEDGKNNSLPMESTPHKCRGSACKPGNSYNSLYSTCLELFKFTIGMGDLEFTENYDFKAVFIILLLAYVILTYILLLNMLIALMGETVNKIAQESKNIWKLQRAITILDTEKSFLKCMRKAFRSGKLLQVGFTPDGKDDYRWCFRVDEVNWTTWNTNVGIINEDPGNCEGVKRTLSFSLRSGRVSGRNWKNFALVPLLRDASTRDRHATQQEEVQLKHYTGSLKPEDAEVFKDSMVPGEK
# measurement.notes: 45Ca2+-uptake assay in CHO/VR1 cells, antagonism of capsaicin-stimulated uptake
# Format: cell-based
# setup.conditions: 45Ca2+ uptake stimulated by 50 nM capsaicin
Respond with the figure and its unit, in that order.

The cases that follow already have their Ki on record.
Input line: Tell us which Ki value is on record for CC(C(=O)NCc1ccc(C(C)(C)C)cc1)c1ccc(NS(C)(=O)=O)cc1Cl (stereo not drawn)
Output line: 4480 nM

Input line: Tell us which Ki value is on record for CC(C(=O)NCc1ccc(Cl)c(Cl)c1)c1ccc(NS(C)(=O)=O)c(F)c1 (stereo not drawn)
Output line: 115 nM

Input line: Tell us which Ki value is on record for COc1cc(C(C)(C)C(=O)NCCCc2ccc(C)c(C)c2)ccc1NS(C)(=O)=O
Output line: 366 nM

Input line: Tell us which Ki value is on record for CC(NC(=O)CCc1ccc(C(C)(C)C)cc1)c1ccc(NS(C)(=O)=O)c(F)c1 (stereo not drawn)
Output line: 103 nM

Input line: Tell us which Ki value is on record for C[C@H](C(=O)NCc1ccc(C(C)(C)C)cc1)c1ccc(NS(C)(=O)=O)c(F)c1
Output line: 6.87 nM

Others:
Input line: Tell us which Ki value is on record for CC(NC(=O)C=Cc1ccc(Cl)cc1)c1ccc(NS(C)(=O)=O)c(F)c1 (stereo not drawn)
Output line: 938 nM

Input line: Tell us which Ki value is on record for CC(C)(C)c1ccc(CNC(=S)NC2(c3ccc(NS(C)(=O)=O)cc3)CC2)cc1
Output line: 60.3 nM

Input line: Tell us which Ki value is on record for Cc1ccc(CCCNC(=O)[C@@H](C)c2ccc(NS(C)(=O)=O)c(F)c2)cc1C
Output line: 33.7 nM

Input line: Tell us which Ki value is on record for COc1cc(C2(C(=O)NCCCc3ccc(C)c(C)c3)CC2)ccc1NS(C)(=O)=O
Output line: 1240 nM

* * *

Each record here notes measured melting point.

Input line: Tell us which melting point value is on record for CC(C(=O)NCc1ccc(C(F)(F)F)cc1)c1ccc(NS(C)(=O)=O)c(F)c1 (stereo not shown)
Output line: 150 to 152 °C

Input line: Tell us which melting point value is on record for CC(C(=O)NCc1ccc(Cl)cc1)c1ccc(NS(C)(=O)=O)cc1 (stereo not shown)
Output line: 164 °C

Input line: Tell us which melting point value is on record for CC(C)(C)c1ccc(CNC(=S)NC2(c3ccc(NS(C)(=O)=O)cc3)CC2)cc1
Output line: 110 to 113 °C

Input line: Tell us which melting point value is on record for Cc1ccc(CC(CNC(=O)C(C)c2ccc(NS(C)(=O)=O)c(F)c2)COC(=O)C(C)(C)C)cc1C (stereo not shown)
Output line: 46 to 48 °C

Input line: Tell us which melting point value is on record for CC(C(=O)NCc1ccc(Cl)c(Cl)c1)c1ccc(NS(C)(=O)=O)c(Cl)c1 (stereo not shown)
Output line: 129 to 130 °C

Input line: Tell us which melting point value is on record for Cc1ccc(C=CCNC(=O)C(C)c2ccc(NS(C)(=O)=O)c(F)c2)cc1C (stereo not shown)
Output line: 144 to 146 °C

* * *

# target.desc: rat VR1 (Rattus norvegicus, UniProt O35433)
# Construct: expressed in transfected cells
# measurement.notes: 45Ca2+-uptake assay in CHO/VR1 cells, antagonism of capsaicin-stimulated uptake
# Type: cell-based
# setup.conditions: 45Ca2+ uptake stimulated by 50 nM capsaicin
measurement.kind: log10(Ki) (log10 of the value in nM)
Heads up: the numbers are on a log10 scale; they represent Ki in nM.

Input line: Tell us which log10(Ki) value is on record for Cc1ccc(CCCNC(=O)C(C)(C)c2ccc(NS(C)(=O)=O)c(F)c2)cc1C
Output line: 2.62

Others:
Input line: Tell us which log10(Ki) value is on record for CC(C(=O)NCC(COC(=O)C(C)(C)C)Cc1ccc(C(C)(C)C)cc1)c1ccc(NS(C)(=O)=O)cc1 (centres unmarked)
Output line: 1.72

Input line: Tell us which log10(Ki) value is on record for CC(C)(C)c1ccc(CNC(=O)C(C)(C)c2ccc(NS(C)(=O)=O)c(F)c2)cc1
Output line: 2.67

Input line: Tell us which log10(Ki) value is on record for C[C@@H](NC(=S)NCc1ccc(C(C)(C)C)cc1)c1ccc(NS(C)(=O)=O)cc1
Output line: 0.66

* * *

# target.desc: rat VR1 (Rattus norvegicus)
# Construct: expressed in transfected cells
# measurement.notes: 45Ca2+-uptake assay in CHO/VR1 cells, antagonism of capsaicin-stimulated uptake
# Assay type: cell-based
# setup.conditions: 45Ca2+ uptake stimulated by 50 nM capsaicin
measurement.kind: Ki (nM)
# value in nM; strip the unit string

Input line: Tell us which Ki value is on record for C[C@H](NC(=S)NC[C@H](COC(=O)C(C)(C)C)Cc1ccccc1)c1ccc(NS(C)(=O)=O)cc1
Output line: 3470

Input line: Tell us which Ki value is on record for CC(C(=O)NCC(COC(=O)C(C)(C)C)Cc1ccc(C(C)(C)C)cc1)c1ccc(NS(C)(=O)=O)c(F)c1 (stereo not shown)
Output line: 3.24

Input line: Tell us which Ki value is on record for CC(C(=O)NCc1ccc(Cl)cc1)c1ccc(NS(C)(=O)=O)c(Br)c1 (stereo not shown)
Output line: 296

Input line: Tell us which Ki value is on record for Cc1ccc(CCC(=O)NC(C)c2ccc(NS(C)(=O)=O)c(F)c2)cc1C (stereo not shown)
Output line: 4130

Input line: Tell us which Ki value is on record for COc1cc(C(C)C(=O)NCc2ccc(C(C)(C)C)cc2)ccc1NS(C)(=O)=O (stereo not shown)
Output line: 232

Others:
Input line: Tell us which Ki value is on record for COC(=O)c1cc(C(C)C(=O)NCc2ccc(C(C)(C)C)cc2)ccc1NS(C)(=O)=O (stereo not shown)
Output line: 951

Input line: Tell us which Ki value is on record for CC(C(=O)NCc1ccc(-c2ccccc2)cc1)c1ccc(NS(C)(=O)=O)c(F)c1 (stereo not shown)
Output line: 261

Input line: Tell us which Ki value is on record for CC(C(=O)NCc1ccc(C(C)(C)C)cc1)c1ccc(NS(C)(=O)=O)c(Cl)c1 (stereo not shown)
Output line: 29.5

Input line: Tell us which Ki value is on record for C[C@@H](C(=O)NC[C@@H](COC(=O)C(C)(C)C)Cc1ccccc1)c1ccc(NS(C)(=O)=O)c(F)c1
Output line: 205

Input line: Tell us which Ki value is on record for CC(C(=O)NCC(c1ccccc1)c1ccccc1)c1ccc(NS(C)(=O)=O)c(F)c1 (stereo not shown)
Output line: 2490

Input line: Tell us which Ki value is on record for CC(C)(C)c1ccc(CNC(=S)NC(c2ccccc2)c2ccc(NS(C)(=O)=O)c(F)c2)cc1 (stereo not shown)
Output line: 861

Input line: Tell us which Ki value is on record for COc1ccc(CNC(=O)C(C)c2ccc(NS(C)(=O)=O)c(F)c2)cc1 (stereo not shown)
Output line: 1350

Input line: Tell us which Ki value is on record for CC(C(=O)NCc1ccc(Cl)c(Cl)c1)c1ccc(NS(C)(=O)=O)c(Cl)c1 (stereo not shown)
Output line: 176

Input line: Tell us which Ki value is on record for C[C@H](C(=O)NC[C@@H](COC(=O)C(C)(C)C)Cc1ccc(C(C)(C)C)cc1)c1ccc(NS(C)(=O)=O)c(Cl)c1
Output line: 12.1

Input line: Tell us which Ki value is on record for C[C@H](C(=O)NC[C@H](COC(=O)C(C)(C)C)Cc1ccc(C(C)(C)C)cc1)c1ccc(NS(C)(=O)=O)c(F)c1
Output line: 0.58

Input line: Tell us which Ki value is on record for CC(C)C(NC(=S)NCc1ccc(C(C)(C)C)cc1)c1ccc(NS(C)(=O)=O)c(F)c1 (stereo not shown)
Output line: 223

Input line: Tell us which Ki value is on record for CC(C(=O)NCC(COC(=O)C(C)(C)C)Cc1ccc(C(C)(C)C)cc1)c1ccc(NS(C)(=O)=O)c(Cl)c1 (stereo not shown)
Output line: 12.3

Input line: Tell us which Ki value is on record for C[C@H](C(=O)NC[C@H](COC(=O)C(C)(C)C)Cc1ccc(C(C)(C)C)cc1)c1ccc(NS(C)(=O)=O)c(Cl)c1
Output line: 5.23

Input line: Tell us which Ki value is on record for C[C@@H](C(=O)NC[C@H](COC(=O)C(C)(C)C)Cc1ccc(C(C)(C)C)cc1)c1ccc(NS(C)(=O)=O)c(F)c1
Output line: 30.3

* * *

Each record here notes measured log10 Ki.
# target.desc: rat VR1 (Rattus norvegicus)
# Construct: expressed in transfected cells
# measurement.notes: [3H]resiniferatoxin (RTX) competition binding assay, VR1-transfected CHO cells
Heads up: the numbers are on a log10 scale; they represent Ki in nM.

The cases that follow already have their log10 Ki on record.
Input line: Write log10 Ki of Cc1ccc(C[C@H](CNC(=S)N[C@H](C)c2ccc(NS(C)(=O)=O)cc2)COC(=O)C(C)(C)C)cc1C ; system used: rat VR1 (Rattus norvegicus)
Output line: 1.18

Input line: Write log10 Ki of Cc1ccc(CCCNC(=O)[C@@H](C)c2ccc(NS(C)(=O)=O)c(F)c2)cc1C ; system used: rat VR1 (Rattus norvegicus)
Output line: 2.37

Others:
Input line: Write log10 Ki of C[C@H](NC(=S)NC[C@H](COC(=O)C(C)(C)C)Cc1ccccc1)c1ccc(NS(C)(=O)=O)cc1 ; system used: rat VR1 (Rattus norvegicus)
Output line: 3.06

Input line: Write log10 Ki of CC(C)(C)c1ccc(CNC(=O)C(C)(C)c2ccc(NS(C)(=O)=O)cc2)cc1 ; system used: rat VR1 (Rattus norvegicus)
Output line: 2.63

Input line: Write log10 Ki of Cc1ccc(CCCNC(=O)C2(c3ccc(NS(C)(=O)=O)cc3)CC2)cc1C ; system used: rat VR1 (Rattus norvegicus)
Output line: 3.24
